# SYSTEM NAME: FGFR1 (UniProt P11362)
# Sequence (P11362 whole entry, looked up): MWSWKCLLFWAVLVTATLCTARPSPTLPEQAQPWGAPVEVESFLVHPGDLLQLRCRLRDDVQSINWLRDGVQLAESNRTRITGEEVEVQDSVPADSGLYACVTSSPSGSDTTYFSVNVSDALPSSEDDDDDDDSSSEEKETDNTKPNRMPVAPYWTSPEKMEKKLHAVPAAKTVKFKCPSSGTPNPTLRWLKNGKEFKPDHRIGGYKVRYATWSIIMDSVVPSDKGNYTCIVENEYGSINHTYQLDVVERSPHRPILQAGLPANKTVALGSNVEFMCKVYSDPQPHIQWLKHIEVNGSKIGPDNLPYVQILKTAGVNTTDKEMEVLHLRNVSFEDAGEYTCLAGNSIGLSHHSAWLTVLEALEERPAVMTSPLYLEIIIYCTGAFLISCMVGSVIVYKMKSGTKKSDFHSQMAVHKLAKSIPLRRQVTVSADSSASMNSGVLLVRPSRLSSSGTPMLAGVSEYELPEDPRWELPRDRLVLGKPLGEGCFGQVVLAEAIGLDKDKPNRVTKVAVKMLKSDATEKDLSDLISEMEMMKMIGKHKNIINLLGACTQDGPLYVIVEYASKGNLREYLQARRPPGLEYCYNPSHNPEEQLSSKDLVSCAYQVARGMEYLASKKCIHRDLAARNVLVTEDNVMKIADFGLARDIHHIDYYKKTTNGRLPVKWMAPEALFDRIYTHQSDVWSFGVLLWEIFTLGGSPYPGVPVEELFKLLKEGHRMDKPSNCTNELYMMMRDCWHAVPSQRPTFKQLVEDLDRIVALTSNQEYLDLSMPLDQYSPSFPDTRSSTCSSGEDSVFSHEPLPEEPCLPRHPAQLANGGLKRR
# EXPERIMENTAL PROTOCOL: phosphorylation enrichment, bacterial display (enrichment ratio); higher = better substrate or ligand; peptides without Tyr show the background;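 note: 11-residue human phosphosite peptides and single-mutation variants displayed on the E. coli surface, counted by deep sequencing, each peptide's frequency after selection divided by its frequency in the unselected input library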;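 note: frequency after pTyr selection over input frequency; kinase dosed for 20-30% of maximal phosphorylation in three min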
RECORDED ENDPOINT: phosphorylation enrichment
Provide a numeric answer; units are not to be included.

These recorded examples may help you get a feel for the data.
CONSTRUCT SEQUENCE	phosphorylation enrichment
FTDGQYWIRGR [ACSF3_Y466_K462T]	0.425
IDFARYWHGND [MMP11_Y162_D166N]	0.508
QRASDYFSQQM [GBP6_Y333_A331S_YF]	0.684

Next:
Lookup: Write down phosphorylation enrichment measured for item ISSLPYMKMIF [SLC4A11_Y853_M848I]
Found: 0.696
